Entry source: PubChem BioAssay AID608

system: Peptidyl-prolyl cis-trans isomerase FKBP1A (Homo sapiens) (UniProt P62942)
Sequence (P62942 whole entry, looked up): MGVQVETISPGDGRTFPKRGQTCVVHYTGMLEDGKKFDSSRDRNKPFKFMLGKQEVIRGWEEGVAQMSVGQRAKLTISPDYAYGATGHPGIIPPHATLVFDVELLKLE
measurement protocol: small-molecule binding to FKBP12 – biophysical, NMR detection (AID 608)
experimental conditions: purified FKBP12
Activity calls are given as the source filed them. How the calls were made is not given here.
measure name: Kd

Prompt line: Quick one: give measured Kd for "Cc1c(C(=O)NCc2ccccn2)oc2ccccc12"
Response line: > 4 mM (inactive)

Prompt line: Quick one: give measured Kd for "Nc1ccc2c(c1)OCCO2"
Response line: > 4 mM (inactive)

Prompt line: Quick one: give measured Kd for "O=S(=O)(CCN1CCCC1)c1ccccc1"
Response line: > 4 mM (inactive)

Prompt line: Quick one: give measured Kd for CC1(C)C2CC(=O)[C@]3(C)C(CC[C@@]4(C)[C@H](c5ccoc5)OC(=O)C5OC543)[C@@]2(C)[C@@H](O)C[C@H]1O (stereo partly drawn)
Response line: > 4 mM (inactive)

Prompt line: Quick one: give measured Kd for "CCc1noc(C)c1C(=O)Nc1ncc(C)s1"
Response line: > 4 mM (inactive)

Prompt line: Quick one: give measured Kd for CCNCC(O)c1ccc([N+](=O)[O-])cc1 (stereo not drawn)
Response line: > 4 mM (inactive)

Prompt line: Quick one: give measured Kd for "Cc1c(/C=N/O)cnn1C"
Response line: > 4 mM (inactive)

Prompt line: Quick one: give measured Kd for "Cc1cc(N)cc(C)c1OCC(=O)N1CCOCC1"
Response line: > 4 mM (inactive)

Prompt line: Quick one: give measured Kd for "O=c1[nH]nc(Cc2ccncc2)c2ccccc12"
Response line: > 4 mM (inactive)

Prompt line: Quick one: give measured Kd for "CN=C(c1ccc([N+](=O)[O-])cc1)N(C)C"
Response line: > 4 mM (inactive)

Prompt line: Quick one: give measured Kd for "CCSc1nnc2[nH]c(=O)cc(C)n12"
Response line: > 4 mM (inactive)

Prompt line: Quick one: give measured Kd for "O=C(CSc1ncccn1)NCc1ccco1"
Response line: > 4 mM (inactive)
